Where do these numbers come from? They come from the nanobody polyreactivity screen of Harvey et al. (2022).

Assay: yeast display, Sf9 membrane polyspecificity reagent, FACS + sequencing; frameworks hold sequencing errors
measure_name: polyreactivity (PSR sort gate)

sequence=QVQLVESGGVLVQAGGRLRISCAASGSTFVRNAMGWYRQAPGKEMELVAAISFSGGSTYYADSVKGRFTISRDTAKNTVYLQMNSLKPEDTAVYYCAKKTRYRSRGMNYWGQATQVTVSS measure_name="polyreactivity (PSR sort gate)" reading="high polyreactivity"
sequence=QVQLVESGGGLVQAGGSLRLSCAASGRIFYTYAMGWYRQAPGKERELVATISRSSSTYYADSVKGRFTISRDNAKNTVYLQMNSLKPEDTAVYYCATRSASQLLDYWGQGTQVTVSS measure_name="polyreactivity (PSR sort gate)" reading="low polyreactivity"
sequence=QVQLVESGGRLVQAGGSLRLSCAASGRIFTGSNVMGWYRQAPGKEREFVAVINSGGGSTYYADSVKGRFTISRDNAKNTVYLQMNSLKPEDTAVYYCAADVGGWGYYDWVQGTQVTVSS measure_name="polyreactivity (PSR sort gate)" reading="low polyreactivity"
sequence=QVQLVESGGGLVQAGGSLRLSCAASGSNFGPYAMGWYRQAPGKERELVAAISYSSVRTYYADSVKGRFTISRDNAKNTVYLQMNSLKPEVTAVYYCNAYFRYAYPSKMDYWGQGTQVTVSS measure_name="polyreactivity (PSR sort gate)" reading="low polyreactivity"

sequence `QVQLVESGGGLVQAGGSLRLSCAASGRIFYNYAMGWYRQAPGKERELVAAISGSGGSTYYADSVKGRFTISRDNAMNTVYLQMNSLKPEDTAVYYCSTSGPQYYSRNFDYWGQGTQVTVSS` , polyreactivity (PSR sort gate) observed: low polyreactivity

sequence `QVQLVESWGGVVQAGVSLRLSCAASGINFYSYAMGWYRQAPGKERELVAAISNNGGSTYADSVKGRFTISRDNAKNTVYLQMNSLKPEDTAVYYCAADPTGGVGFDGYYWGQGTQVSVSS` , polyreactivity (PSR sort gate) observed: low polyreactivity

* * *

Assay: yeast display, Sf9 membrane polyspecificity reagent, FACS + sequencing; frameworks hold sequencing errors
measure_name: polyreactivity (PSR sort gate)

sequence=QVQLVESGGGLVQAGGSLRLSCAASGSTLNIYAMGWYRQAPGKERELVAAISWTDDTTYYADSVKGRFTISRDNAKNTVYLQMNSLKPEDTAVYYCAAEIYSWSDAQQYDYWGQGTQVTVSS measure_name="polyreactivity (PSR sort gate)" reading="high polyreactivity"
sequence=QVQLVESGGGLLQAGGSLRLSCAASGRIFGWYAMGWYRQAPGKERELVAAISRGGTRTNYADSVKGRFTISRDNSKNTVYLQMNSLKPEDTAVYYCAAGGSWCQNGYWGQGTQVTVSS measure_name="polyreactivity (PSR sort gate)" reading="high polyreactivity"
sequence=QVQLVESGGGLVQAGGSLRLSCAASGSTFYRYMGWYRQAPGKERELVADISSSGDTYYADSVKGRFTISRDNAKNTVYLQMNSLKPEDTAVYYCAADVSVGYWWSYSMDYWGQGTQVTVSS measure_name="polyreactivity (PSR sort gate)" reading="high polyreactivity"
sequence=QVQLVESGGGLVQAGGSLRLSCAASGRIFAGYAMGWYRQAPGKERELVASIRSSGSTYYADSVKGRFTISRDNAKNTVYLQMNSLKPEDTAVYYCNAVPRRRRYSRLGYWGQGTQVTVSS measure_name="polyreactivity (PSR sort gate)" reading="high polyreactivity"
sequence=QVQLVESGGGLVQAGGSLRLSCAASGFTFSLYAMGWYRQAPGKERELVAAISRSGGSTYYADSVKGRFTISRDNAKKTVYLQMNSLKPEDTAVYYCNAPYSVSSIRYDYWGQGTQVTVSS measure_name="polyreactivity (PSR sort gate)" reading="high polyreactivity"
sequence=QVQLVESGGGLVQAGGSLRLSCAASGFIFGYNAMGWYRQAPGKERELVAAITWIGGTTYYADSVKGRFTISRDNAKNTVYLQMNSLKPEDTAVYYCARQRSYGRSSYSYGYDYWVQGTQVTVSS measure_name="polyreactivity (PSR sort gate)" reading="high polyreactivity"
sequence=QVQLVESGGGLVQAGGSLRLSCAASGSIFLYNAMGWYRQAPGKERELVAAISASGGSTYYADSVKGRFTISRDNAKNTVYLQMNSLKPEDTAVYYWAAQYSDYDGFTWPLPPRYDYWGQGTQVTVSS measure_name="polyreactivity (PSR sort gate)" reading="high polyreactivity"
sequence=QVQLVESGGGLVQAGGSLRLSCAASGLTFDAYAMGWYRHAPRKERELVAAISWSGGSTYYADSVKGRFTISRDNAKNTVYLQMNSLKPEDTAVYYSNARYAQFRFWGQGTQVTVSS measure_name="polyreactivity (PSR sort gate)" reading="high polyreactivity"
sequence=QVQLVESGGGLVQAGGSLRLSCAASGFTFVNYVMGWYRQAPGKERELVAAISRSGGSTYYADSVKGRFTISRDNAKNTVYLQMNSLKPEDTAVYYCAARWFYRAGFNYWGQGTQVTVSS measure_name="polyreactivity (PSR sort gate)" reading="high polyreactivity"
sequence=QVHHVESGGGLVQAGGSLRLSCAASGFTLGWYAMGWYRQAPGKERELVAAISSSGGSTYYADSVKGRFTISRDNAKNTVYFQMNSLKPEDTAVYFCAASSAYYRYGYGQFDYWGQGTQVTVSS measure_name="polyreactivity (PSR sort gate)" reading="high polyreactivity"

sequence `QVQLVESGGGLVQAGGSLRLSCSSSGLIFRRNAMGWYRQAPGKERELVAVIDRGGRTNYADSVKGRFTISRDNAKNTVYLQMNSLKPEDTAVYYCDKRYASTSGYWGQGTQVTVSS` , polyreactivity (PSR sort gate) observed: high polyreactivity

sequence `QVQLVESGGGLVQAGGSLRLSCAASGFTIGKNAMGWYRQAPGKERELVAAISLSGGRTYADSVKGRFTISRDNAKNTVYLQTNSLKPEDTAVYYCAANRYPKFYWGQGTQVTVSS` , polyreactivity (PSR sort gate) observed: high polyreactivity

sequence `QVQLVESGGGLVQARGSLRLSCAASGFTFDFYAMGWYRQAPGKERELVAAISKNDGTTYYADSVKGRFTISRDNAKNTVYLQMNSLKREDTAVYYCAAESGYPDYTYVSSGDYWGQGTQVTVSS` , polyreactivity (PSR sort gate) observed: low polyreactivity
